Just for reference, paper PMC10515640 is where these values come from.

Biological target: 14-3-3σ (Homo sapiens)
Construct: The 14-3-3 σ isoform (full-length for mass spectrometry and fluorescence anisotropy assays, ΔC for crystallography); made in house; host or cells: E. coli Rosetta 2(DE3)pLysS, pPROEX HTb vector
Test: Mass spectrometry dose response, compound binding to 14-3-3σ in the absence of peptide (apo)
Conditions: 100 nM compound, 100 nM 14-3-3σ, 8h
Each item that follows carries a reported Percentage (%) bound of compound to 14-3-3σ, APO 8h.
Write the value in % as a bare number.

CC(C)(Oc1ccc(Cl)cc1)C(=O)N1CCC(CCNC(=O)CCl)CC1; 1.0
O=C(CCl)NCCCC1CCN(C(=O)C2(Nc3ccc(Cl)cc3)CCOCC2)CC1; 0.8
CC(C)(Oc1ccc(Cl)cc1)C(=O)N1CCC(CCCNC(=O)CCl)CC1; 0

Next up:
Reported Percentage (%) bound of compound to 14-3-3σ, APO 8h ( CC1CC(Nc2ccc(Cl)cc2)(C(=O)N2CCC(CNC(=O)CCl)CC2)CC(C)O1 (stereo not shown) ) = 1.7

====

Measured Percentage (%) bound of compound to 14-3-3σ, APO 16h, listed per entry.
Molecular target: 14-3-3σ (Homo sapiens, UniProt P31947)
Construct: The 14-3-3 σ isoform (full-length for mass spectrometry and fluorescence anisotropy assays, ΔC for crystallography); made in house; host or cells: E. coli Rosetta 2(DE3)pLysS, pPROEX HTb vector
Sequence (P31947 1-248): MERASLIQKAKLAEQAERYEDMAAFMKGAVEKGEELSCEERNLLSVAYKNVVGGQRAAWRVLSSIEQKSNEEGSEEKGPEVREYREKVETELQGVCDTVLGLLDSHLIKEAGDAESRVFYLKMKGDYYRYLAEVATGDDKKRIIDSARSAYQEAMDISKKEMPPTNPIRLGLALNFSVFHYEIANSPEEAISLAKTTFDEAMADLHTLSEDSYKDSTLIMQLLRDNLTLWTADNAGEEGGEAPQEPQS
Assay: Mass spectrometry dose response, compound binding to 14-3-3σ in the absence of peptide (apo)
Conditions: 100 nM compound, 100 nM 14-3-3σ, 16h
Write down the value, and be sure its unit follows.

// worked examples, Percentage (%) bound of compound to 14-3-3σ, APO 16h included
CC(C)(Nc1ccc(Cl)cc1)C(=O)N1CCC(CNC(=O)CCl)CC1 [compound 84]; 1.0%
CC(C)(Oc1ccc(Cl)cc1)C(=O)N1CCC(NC(=O)CCl)CC1 [compound 26]; 0%
CC1CC(Nc2ccc(Cl)cc2)(C(=O)N2CCC(CNC(=O)CCl)CC2)CC(C)O1 (centres unmarked) [compound 178]; 2.4%
O=C(CCl)N1CC2(CCN(C(=O)C3(Nc4ccc(Cl)cc4)CCOCC3)CC2)C1 [compound 160]; 1.0%
O=C(CCl)N1CCC2(CC1)CC(NC(=O)C1(Nc3ccc(Cl)cc3)CCOCC1)C2 [compound 163]; 22.6%
C=CS(=O)(=O)NCC1CCN(C(=O)C(C)(C)Oc2ccc(Cl)cc2)CC1 [compound 17]; 1.0%
O=C(CCl)NCC1CCN(C(=O)C2(Nc3ccc(Cl)cc3)CCCCC2)CC1 [compound 123]; 1.0%

Percentage (%) bound of compound to 14-3-3σ, APO 16h of O=C(CCl)NCC1CCN(C(=O)C2(Nc3ccccc3)CCCC2)CC1 [compound 120] , assay on 14-3-3σ (Homo sapiens, UniProt P31947), is 0%

====

Each entry below carries its recorded Percentage (%) bound of compound to 14-3-3σ, APO 24h.
Target: 14-3-3σ (Homo sapiens)
Construct: The 14-3-3 σ isoform (full-length for mass spectrometry and fluorescence anisotropy assays, ΔC for crystallography); made in house; host or cells: E. coli Rosetta 2(DE3)pLysS, pPROEX HTb vector
Sequence (P31947 1-248): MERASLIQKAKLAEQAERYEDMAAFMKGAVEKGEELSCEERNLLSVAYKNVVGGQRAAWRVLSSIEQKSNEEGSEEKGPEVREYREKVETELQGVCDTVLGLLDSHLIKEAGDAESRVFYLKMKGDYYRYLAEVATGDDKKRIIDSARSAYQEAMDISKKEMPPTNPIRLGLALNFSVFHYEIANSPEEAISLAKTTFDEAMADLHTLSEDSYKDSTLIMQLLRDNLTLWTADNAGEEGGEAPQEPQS
Test: Mass spectrometry dose response, compound binding to 14-3-3σ in the absence of peptide (apo)
Conditions: 100 nM compound, 100 nM 14-3-3σ, 24h
Your answer is read as %, so omit the unit and give the number.

O=C(CCl)NCCCC1CCN(C(=O)C2(Nc3ccc(Cl)cc3)CCOCC2)CC1; 17.7
Cl.NC1CCC(Nc2ccccc2)(C(=O)N2CCC(CNC(=O)CCl)CC2)CC1 (stereo not shown); 25.6
O=C(CCl)N1CCC2(CC1)CN(C(=O)C1(Nc3ccc(Cl)cc3)CCOCC1)C2; 1.0

Next:
The compound identified as O=C(CCl)NCC1CC2(CCN(C(=O)C3(Nc4ccc(Cl)cc4)CCOCC3)CC2)C1 registered its Percentage (%) bound of compound to 14-3-3σ, APO 24h at 3.0

====

Target: 14-3-3σ/C-RAF (Homo sapiens, UniProt P31947)
Construct: The 14-3-3 σ isoform (full-length for mass spectrometry and fluorescence anisotropy assays, ΔC for crystallography); made in house; host or cells: E. coli Rosetta 2(DE3)pLysS, pPROEX HTb vector
Test: Mass spectrometry dose response, compound binding to 14-3-3σ in the presence of C-RAF phosphopeptide
Conditions: 100 nM compound, 100 nM 14-3-3σ, C-RAF peptide 18 µM, 8h
reported.property: Percentage (%) bound of compound to 14-3-3σ, CRAF 8h
Give just the number in %; leave the unit off.

Below, 6 compounds whose answers are already recorded.
O=C(CCl)NCC1CCN(C(=O)C2(Nc3ccc(Cl)cc3)CCCCC2)CC1; 1.9
CC(C)(Oc1ccc(Cl)cc1)C(=O)N1CCC(NC(=O)CCl)CC1; 1.0
Cl.O=C(CCl)NCC1CCN(C(=O)C2(Oc3ccc(Cl)cc3)CCNCC2)CC1; 0.6
O=C(CCl)NCC1CCN(C(=O)C2(Nc3ccccc3)CCCC2)CC1; 0
CC1CC(Nc2ccc(Cl)cc2)(C(=O)N2CCC(CNC(=O)CCl)CC2)CC(C)O1 (centres unmarked); 0.5
CC(C)(Oc1ccc(Cl)cc1)C(=O)N1CCC(CNC(=O)CCl)CC1; 10.6

Short answer for O=C(CCl)NCC1CCN(C(=O)C2(Oc3ccc(Cl)cc3)CCCC2)CC1 : Percentage (%) bound of compound to 14-3-3σ, CRAF 8h was 21.4

For O=C(CCl)NCC1CCN(C(=O)C2(Nc3ccc(Cl)cc3)CCC(F)(F)CC2)CC1 the compound record lists Percentage (%) bound of compound to 14-3-3σ, CRAF 8h as 7.6

Reported Percentage (%) bound of compound to 14-3-3σ, CRAF 8h for O=C(CCl)NCCC1CCN(C(=O)C2(Nc3ccc(Cl)cc3)CCOCC2)CC1 was 0

Sure, the documented Percentage (%) bound of compound to 14-3-3σ, CRAF 8h for CC(C)(Oc1ccc(Cl)cc1)C(=O)N1CCC(CCCNC(=O)CCl)CC1 is 1.0

Entry CC1CC(Nc2ccc(Cl)cc2)(C(=O)NCC2CC3(CCN(C(=O)CCl)CC3)C2)CC(C)O1 (centres unmarked) , Percentage (%) bound of compound to 14-3-3σ, CRAF 8h reported as 2.5

Recorded Percentage (%) bound of compound to 14-3-3σ, CRAF 8h (compound C=CS(=O)(=O)NCC1CCN(C(=O)C(C)(C)Oc2ccc(Cl)cc2)CC1 ): 8.0

// recorded Percentage (%) bound of compound to 14-3-3σ, CRAF 8h for O=C(CCl)NCC1CCN(C(=O)C2(Oc3ccc(Cl)cc3)CCOCC2)CC1 : 1.0

NC1CCC(Oc2ccc(Cl)cc2)(C(=O)N2CCC(CNC(=O)CCl)CC2)CC1 (centres unmarked) yielded Percentage (%) bound of compound to 14-3-3σ, CRAF 8h of 1.8

For Cl.NC1CCC(Oc2ccccc2)(C(=O)N2CCC(CNC(=O)CCl)CC2)CC1 (centres unmarked) the compound record lists Percentage (%) bound of compound to 14-3-3σ, CRAF 8h as 0

Record O=C(CCl)NCCCC1CCN(C(=O)C2(Nc3ccc(Cl)cc3)CCOCC2)CC1 , field Percentage (%) bound of compound to 14-3-3σ, CRAF 8h: 1.0

# compound Cl.NC1CCC(Nc2ccccc2)(C(=O)N2CCC(CNC(=O)CCl)CC2)CC1 (centres unmarked) ; its Percentage (%) bound of compound to 14-3-3σ, CRAF 8h = 2.9

====

Target: 14-3-3σ/C-RAF (Homo sapiens, UniProt P31947)
Construct: The 14-3-3 σ isoform (full-length for mass spectrometry and fluorescence anisotropy assays, ΔC for crystallography); made in house; host or cells: E. coli Rosetta 2(DE3)pLysS, pPROEX HTb vector
Experiment: Mass spectrometry dose response, compound binding to 14-3-3σ in the presence of C-RAF phosphopeptide
Conditions: 100 nM compound, 100 nM 14-3-3σ, C-RAF peptide 18 µM, 24h
Excerpt: Two orthogonal assays were developed for screening. For the primary assay, mass spectrometry (MS) was used to monitor the formation of the covalent bond between the compound and the native cysteine (Cys38 on 14-3-3σ) (Figure 1D). […] As a secondary assay, fluorescence anisotropy (FA) was used. […]
reported.property: Percentage (%) bound of compound to 14-3-3σ, CRAF 24h
State the value with its unit after it.

O=C(CCl)N1CCC2(CC1)CC(CNC(=O)C1(Nc3ccc(Cl)cc3)CCOCC1)C2; 17.4%

For this compound ( O=C(CCl)NCC1CCN(C(=O)C2(Oc3ccc(Cl)cc3)CCCCC2)CC1 ), measured Percentage (%) bound of compound to 14-3-3σ, CRAF 24h is 17.5%

// field: Percentage (%) bound of compound to 14-3-3σ, CRAF 24h; key: CC(C)(Oc1ccc(Cl)cc1)C(=O)N1CCC(NC(=O)CCl)CC1 ; value = 4.3%

# Percentage (%) bound of compound to 14-3-3σ, CRAF 24h (compound: Cl.O=C(CCl)NCC1CCN(C(=O)C2(Oc3ccc(Cl)cc3)CCNCC2)CC1 ) is 2.6%
